target: Dual specificity protein kinase CLK2 (Homo sapiens, UniProt P49760); type: functional
Sequence (P49760 whole entry): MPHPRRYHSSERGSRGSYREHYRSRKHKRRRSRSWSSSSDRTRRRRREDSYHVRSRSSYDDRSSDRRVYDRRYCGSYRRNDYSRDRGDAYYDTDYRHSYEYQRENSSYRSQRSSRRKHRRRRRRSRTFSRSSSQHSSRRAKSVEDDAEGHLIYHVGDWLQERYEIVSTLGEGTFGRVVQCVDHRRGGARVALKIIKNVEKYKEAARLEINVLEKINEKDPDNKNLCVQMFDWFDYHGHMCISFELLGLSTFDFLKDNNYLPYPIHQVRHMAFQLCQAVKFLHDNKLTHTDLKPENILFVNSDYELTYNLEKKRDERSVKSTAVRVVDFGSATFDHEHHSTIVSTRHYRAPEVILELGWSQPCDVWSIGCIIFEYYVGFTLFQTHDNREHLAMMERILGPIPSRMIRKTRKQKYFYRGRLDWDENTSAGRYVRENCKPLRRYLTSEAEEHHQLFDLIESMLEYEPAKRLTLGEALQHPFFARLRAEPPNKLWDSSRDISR
The source made the active and inactive calls.
Outcome codes: 1 = active, 0 = inactive

{"molecule": "CCC1CC(NS(=O)(=O)C2CC2)CC1c1ncc2cnc3[nH]ccc3n12 (centres undefined)", "answer-label": 0}
{"molecule": "O=C(Nc1cccc(C(F)(F)F)n1)Nc1ccnc2cc(OC(F)F)ccc12", "answer-label": 0}
{"molecule": "O=C(Nc1cccc(C(F)(F)F)n1)Nc1ccnc2cc(Cl)ccc12", "answer-label": 0}
{"molecule": "O=c1[nH]c2cc(Br)cnc2[nH]1", "answer-label": 1}

====

target: Streptokinase A (Streptococcus pyogenes serotype M1); experiment: S. pyogenes streptokinase expression inhibitors, potency, dose response, plasminogen activation absorbance, OD405 (AID 1914); type: functional, Streptococcus pyogenes M1 GAS;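 note: secreted streptokinase activity via plasminogen activation per viability signal from cell pellet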
Sequence (P10520 whole entry): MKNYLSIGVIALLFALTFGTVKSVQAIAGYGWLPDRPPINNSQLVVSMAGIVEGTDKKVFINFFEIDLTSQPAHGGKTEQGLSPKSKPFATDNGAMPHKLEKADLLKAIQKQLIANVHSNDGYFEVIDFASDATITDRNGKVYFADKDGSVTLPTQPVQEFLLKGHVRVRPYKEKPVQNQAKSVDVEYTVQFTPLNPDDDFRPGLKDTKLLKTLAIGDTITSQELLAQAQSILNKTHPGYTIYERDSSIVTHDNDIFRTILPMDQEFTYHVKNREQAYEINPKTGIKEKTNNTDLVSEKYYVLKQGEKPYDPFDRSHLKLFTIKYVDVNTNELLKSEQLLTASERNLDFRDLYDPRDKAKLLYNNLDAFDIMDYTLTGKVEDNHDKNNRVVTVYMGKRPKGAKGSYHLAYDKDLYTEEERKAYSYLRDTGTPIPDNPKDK
The source made the active and inactive calls.
Each item that follows carries a reported EC50.

{"molecule": "Oc1c(Cl)cc(Cl)cc1/C=N\\c1cc(C(F)(F)F)ccc1N1CCc2ccccc2C1", "EC50": "47.7 µM (active)"}
{"molecule": "CC1CCc2c(sc3nc(C4CC4)nc(N4CCN(C(=O)c5ccco5)CC4)c23)C1 (configuration not stated)", "EC50": "3.24 µM (active)"}
{"molecule": "Cc1sc2ncnc(N/N=C/c3ccccc3O)c2c1C", "EC50": "8.21 µM (active)"}
{"molecule": "Cc1ccc(Cl)cc1N1CCN(C(=O)c2cccc3c(=O)c(C)c(-c4ccccc4)oc23)CC1", "EC50": "16 µM (active)"}
{"molecule": "O=C(CNC(=O)c1ccc(F)cc1)N/N=C/c1cc(Br)ccc1OCc1ccccc1", "EC50": "> 150 µM (not active)"}
{"molecule": "O=C(Cc1ccccc1)N/N=C/c1ccccn1", "EC50": "> 150 µM (not active)"}
{"molecule": "Cc1ccccc1C(=O)NNC(=S)NC(=O)c1cccs1", "EC50": "> 150 µM (not active)"}
{"molecule": "O=C(CSc1nnc(CNC(=O)c2c(F)cccc2F)o1)NCc1ccccc1", "EC50": "> 150 µM (not active)"}
{"molecule": "Oc1c(Br)cc(Br)cc1CNc1ccc(F)cc1", "EC50": "84.4 µM (active)"}
{"molecule": "O=C(Nc1nnc(SCc2ccccc2Cl)s1)C1COc2ccccc2O1 (configuration not stated)", "EC50": "7.36 µM (active)"}
{"molecule": "CC(C)(C)c1ccc(OCC(O)CS(=O)(=O)c2ccccn2)cc1 (configuration not stated)", "EC50": "> 150 µM (not active)"}
{"molecule": "C/C(=N\\NC(=S)NCCc1ccccc1)c1ccc(Cl)cc1Cl", "EC50": "> 150 µM (inconclusive)"}

====

biological target: Paired box protein Pax-8 (Homo sapiens, UniProt Q06710); test: inhibitors of PAX8-driven TPO luciferase reporter, dose response, RMG-I cells, cherry-pick (AID 687027); format: functional, cell-based;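 note: luciferase reporter driven by Pax8 target thyroperoxidase promoter measured by SteadyGlo luminescence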
Sequence (Q06710 whole entry): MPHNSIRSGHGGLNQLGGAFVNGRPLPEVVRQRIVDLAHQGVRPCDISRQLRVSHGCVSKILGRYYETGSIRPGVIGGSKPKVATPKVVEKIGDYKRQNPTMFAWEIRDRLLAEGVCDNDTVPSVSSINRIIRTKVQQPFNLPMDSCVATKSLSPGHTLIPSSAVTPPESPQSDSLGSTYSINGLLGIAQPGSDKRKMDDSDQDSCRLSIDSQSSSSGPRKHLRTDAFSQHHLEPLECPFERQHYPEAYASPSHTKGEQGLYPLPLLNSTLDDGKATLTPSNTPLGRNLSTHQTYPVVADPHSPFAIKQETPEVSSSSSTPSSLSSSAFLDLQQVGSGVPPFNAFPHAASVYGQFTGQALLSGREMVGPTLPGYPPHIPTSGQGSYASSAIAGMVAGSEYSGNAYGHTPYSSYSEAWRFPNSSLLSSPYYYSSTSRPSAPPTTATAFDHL
The source made the active and inactive calls.
# AC50 annotations

{"compound": "OC[C@@H]1[C@H](c2ccc(-c3ccc(F)cc3)cc2)[C@@H]2CN(CCC(F)(F)F)CCCCN12", "experimental-system": "Paired box protein Pax-8 (Homo sapiens, UniProt Q06710)", "AC50": "34.9 µM (active)"}
{"compound": "C[C@@H]1CN([C@H](C)CO)C(=O)c2cc(NS(=O)(=O)c3ccc(Cl)cc3)ccc2O[C@@H](C)CCCCO[C@H]1CN(C)Cc1ccc(C(F)(F)F)cc1", "experimental-system": "Paired box protein Pax-8 (Homo sapiens, UniProt Q06710)", "AC50": "6.62 µM (active)"}
{"compound": "CCC(C)C1NC(=O)C(NC(=O)C(CC(C)C)N(C)C(=O)C2CCCN2C(=O)C(C)O)C(C)OC(=O)C(Cc2ccc(OC)cc2)N(C)C(=O)C2CCCN2C(=O)C(CC(C)C)NC(=O)[C@H](C)C(=O)[C@H](C(C)C)OC(=O)CC1O (some centres undefined)", "experimental-system": "Paired box protein Pax-8 (Homo sapiens, UniProt Q06710)", "AC50": "< 0.26 µM (active)"}
{"compound": "CCN(CC)S(=O)(=O)c1cc([N+](=O)[O-])ccc1NNC(=O)Nc1ccc(Cl)c(Cl)c1", "experimental-system": "Paired box protein Pax-8 (Homo sapiens, UniProt Q06710)", "AC50": "8.91 µM (active)"}
